All values here come from patent US20250289893A1.

molecular target: T1, human CD1a expressed on cells (human, UniProt P06126 17-327; P61769 21-119); test: flow cytometry, MOLT4 cells, 3.16 µg/ml antibody
T1 construct: also called HEK - CD1a; C1R - CD1a
measuredEndpoint: Fluorescence Intensity Geomean (normalized to background) (fold over background)

{"binder": "77A (VR11851) (antibody, V domains shown, also called OX77a; antibody 77a) VH: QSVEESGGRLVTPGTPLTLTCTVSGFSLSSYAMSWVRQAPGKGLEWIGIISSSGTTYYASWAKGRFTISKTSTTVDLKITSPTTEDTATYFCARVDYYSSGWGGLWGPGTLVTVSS VL: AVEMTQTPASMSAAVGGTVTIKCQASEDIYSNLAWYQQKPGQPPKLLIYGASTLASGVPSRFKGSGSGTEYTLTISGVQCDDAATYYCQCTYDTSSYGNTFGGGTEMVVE", "result": 7.4}
